Assay Protocol: Cell viability assay, MTT endpoint, HeLa
Format: cell-based, human
Particulars: human, HeLa cells, HeLa, 250 µg/mL, 24 h
Test Readout: viability at 24 h, 250 µg/mL
Kindly format the answer as number then unit.

Data request: Item CC(C)(C)N1CC(CCl)C(Cl)(Cl)C1=O (stereo not shown) has what recorded viability at 24 h, 250 µg/mL?
Data returned: 15%

----------
Tested on: human epithelial carcinoma (HeLa) cell line
Assay Protocol: Cell viability assay, MTT endpoint, HeLa
Assay type: cell-based
Particulars: Homo sapiens, HeLa, 24 h, 24 h incubation, 10–250 µg/mL
Test Readout: IC50

Example cases with answers are listed next.
Compound | IC50
O=C1N(c2ccccc2)CC(CCl)C1(Cl)Cl (centres unmarked) | > 250 µg/mL
CC(C)(C)N1CCC(CCl)C(Cl)(Cl)C1=O (centres unmarked) | > 250 µg/mL

Data request: Item O=C1NCC(CCl)C1(Cl)Cl (centres unmarked) has what recorded IC50?
Data returned: > 250 µg/mL

Data request: Item CC(C)(C)N1CC(CCl)C(Cl)(Cl)C1=O (centres unmarked) has what recorded IC50?
Data returned: 195 µg/mL

Data request: Item O=C1CCC(N2CC(CCl)C(Cl)(Cl)C2=O)CC1 (centres unmarked) has what recorded IC50?
Data returned: > 250 µg/mL
